Task for the reader: assign each of the following molecules its reported XC50.
# System: Plasmodium falciparum
# procedure.details: GSK_TCMDC: Inhibition of Plasmodium falciparum 3D7 in whole erythrocytes, using parasite LDH activity as an index of growth.
# Type: functional, organism-based
# assay.context: Plasmodium falciparum, 3D7
API: value field is a number in nM; no unit string.

Task: Need XC50, item N=C1N=C(N)NC2(CCCCC2)N1OCCCOc1cccc2ccccc12
Result: 3.2

Task: Now give it for O=C(CN1CCN(C(=O)c2ccco2)CC1)Nc1ccccc1Br too.
Result: 558

Task: Now give it for O=C(Nc1ccc(Cl)c(-c2nc3ccccc3[nH]2)c1)c1ccc(-c2ccc(Cl)cc2)o1 too.
Result: 785

Task: Now give it for CSc1ccc(CN2CCC(CNC(=O)c3cc(-c4ccccc4F)cs3)C2)cc1 (configuration not stated) too.
Result: 1140

Task: Now give it for COc1ccc(CN2CCC(NCc3cccc([N+](=O)[O-])c3)CC2)cc1 too.
Result: 910

Task: Now give it for O=C(Nc1ccc(C(F)(F)F)cc1)NC1CCN(c2ccnc3cc(Cl)ccc23)CC1 too.
Result: 178

Task: Now give it for CCOc1cc(C(=O)Nc2ccc3nc(N(CC)CC)cc(C)c3c2)cc(OCC)c1OCC too.
Result: 696

Task: Now give it for Cc1cc(C)c2ncc(C(=O)O)c(O)c2c1 too.
Result: 878

Task: Now give it for COc1cccc(CNC[C@@H](O)[C@H](Cc2ccccc2)NC(=O)c2cc(OC(C)C)cc(N3CCCCS3(=O)=O)c2)c1 too.
Result: 730

Task: Now give it for Cc1cc(C)nc(-n2[nH]c(C)c(Cc3ccc(C(C)(C)C)cc3)c2=O)n1 too.
Result: 1010

Task: Now give it for CCOc1cc(C)ccc1NC1CCN(CCCCNC(=O)c2ccc(NC(=O)c3ccc(Cl)cc3)cc2)CC1 too.
Result: 714

Task: Now give it for CCOc1ccc(CCCON2C(=N)N=C(N)NC2(C)C)cc1 too.
Result: 3.2

Task: Now give it for O=C(NCCN1CCOCC1)c1ccc(N2CCC(Oc3ccc4ccccc4c3)CC2)nc1 too.
Result: 763

Task: Now give it for CCC(CC)CN1C(=O)C(C)(c2ccccc2)N=C1N (configuration not stated) too.
Result: 1060

Task: Now give it for COc1ccc(NC(=O)Nc2ccc(-c3ccncc3)c(Cl)c2)cc1N1CCN(C)CC1 too.
Result: 755

Task: Now give it for COc1cc(C(=O)Nc2nc3ccccc3[nH]2)ccc1OCC(=O)Nc1cccc(C(F)(F)F)c1 too.
Result: 738

Task: Now give it for CCCc1cc(Cc2cnc(N)nc2N)cc(CCC)c1O too.
Result: 277

Task: Now give it for CCNc1cc(C)nc(Nc2ccc(NC(=O)c3ccccc3Cl)cc2)n1 too.
Result: 1010

Task: Now give it for COc1ccc2c(c1CNCCCCCCNCc1c(OC)ccc3c1CCCC3)CCCC2 too.
Result: 907

Task: Now give it for COc1ccc(CCNCc2ccc3c(C)cc(N)nc3c2)cc1 too.
Result: 568

Task: Now give it for Cc1cccc2nc(-c3cccc(-c4ccc(NC(=O)c5ccncc5)cc4)c3)[nH]c12 too.
Result: 497

Task: Now give it for O=C(/C=C/c1ccc(Cl)c(Cl)c1)NCCCCCCN1CCN(C(=O)Nc2cccc(Cl)c2)CC1 too.
Result: 981

Task: Now give it for O=C(NCCc1ccccc1)N(Cc1ccccc1-c1ccc(CNCCc2ccccc2)cc1)C1CCN(Cc2ccccc2)CC1 too.
Result: 716

Task: Now give it for CN(C)c1c(CNCCCCCCNCc2ccc3ccccc3c2N(C)C)ccc2ccccc12 too.
Result: 463

Task: Now give it for Cc1noc(C)c1-c1ccc2c(Nc3nccc4ccccc34)c(C(N)=O)cnc2c1 too.
Result: 895

Task: Now give it for CN1CCN(CC(=O)Nc2ccc(-c3ccc(-c4nc5ccccc5[nH]4)s3)cc2)CC1 too.
Result: 299

Task: Now give it for O=[N+]([O-])c1cccc(CNCC2CCN(CCc3ccccc3)CC2)c1 too.
Result: 785

Values were extracted from ChEMBL document CHEMBL1157539.
